Value source: PubChem BioAssay (NCI)

# System: MALME-3M melanoma
# protocol.text: NCI-60 one-dose screen, 48 h
# test.settings: 10 µM unless noted
Compounds without any hit were thinned out: in the full panel of roughly 83,000, 20% have a hit. The source made the active and inactive calls. The calls were made as follows: active = growth percent below 10; inactive = the rest.
Give one outcome, nothing more. List: 1 (active), -1 (inactive)

Query :: How was O=C(Nc1ccc(CN2CCOCC2)cc1)c1[nH]ncc1Nc1ncnc2sccc12 classified in this test?
Result :: 1

Query :: Given CC/C=C\C[C@H](O)C/C=C1/C(=O)C=C[C@@H]1C/C=C\CCCC(N)=O , state the outcome it received in this test.
Result :: 1

Query :: Per the records of this test, what outcome belongs to O=C1C=CC(=O)c2c1nc1n2CCCC1 ?
Result :: 1

Query :: For this molecule, state the assay outcome: Cc1csc2ccc(Cl)cc12
Result :: -1

Query :: // return assay outcome for CCOC(=O)C(C#N)C1CCCCC1 (stereo not given)
Result :: -1

Query :: Outcome logged for O=C(CN1CCN(c2cc3c(cc2F)c(=O)c(C(=O)O)cn3C2CC2)CC1)Nc1cc(=O)[nH]c(=O)[nH]1 in this assay:
Result :: -1

Query :: Hi, do you know how COc1cc(-c2cc(-c3nc4ccc(Cl)cc4[nH]3)[nH]n2)cc(OC)c1OC came out in this test?
Result :: -1

Query :: Just curious, what result did CCCCCCCCCCCCCCCCCCNC(=O)[C@H]1CSC(c2ccc(OC)c(F)c2)N1 (stereo not given in full) get here?
Result :: 1

Query :: How was COc1ccc2nc3cc(Cl)ccc3c(N3CCN(c4nccc(NCc5ccccc5)n4)CC3)c2c1 classified in this test?
Result :: -1

Query :: Test call, this molecule: COC(=O)C12C3C(=O)N(c4ccc(OC)cc4)C(=O)C3C(c3cn(-c4ccccc4)nc3C)N1[C@H](c1cn(-c3ccccc3)nc1C)[C@@H]1C(=O)N(c3ccc(OC)cc3)C(=O)[C@@H]12 (stereo not given in full)
Result :: -1

Query :: Per the records of this test, what outcome belongs to O=C1OC2C(I)C3CC2C1C3c1ccccc1 (stereo not given) ?
Result :: -1

Query :: Write down the call the test reported for this molecule. Item: CC/C(Cc1ccccc1)=C(\c1ccc(OCCN2CCCC2)cc1)c1ccc(OC(C)=O)cc1
Result :: -1

Query :: Test call, this molecule: CN(C)c1ccc(C2Nc3ccccc3-n3cccc32)cc1 (stereo not given)
Result :: -1

Query :: For this molecule, state the assay outcome: COc1cnc2c(c1)C(=O)c1c-2n(CCCN2CCN(C)CC2)c(=O)c2cc([N+](=O)[O-])ccc12
Result :: 1

Query :: Dear colleague, could you share the recorded outcome for CSc1nc(NCCO)c(C#N)c(-c2cccc(N)c2)n1 when you have a moment?
Result :: -1

Query :: What did this assay record as the result for C/C(Cc1ccc(Cl)cc1)=C(\c1ccc(OCCN2CCCCCC2)cc1)c1ccc(OC(=O)C2CCCCC2)cc1 ?
Result :: -1

Query :: Answer briefly: the call reported for Cn1cc(-c2csc(-c3cn(C)c4ncccc34)n2)c2ccccc21 in this assay.
Result :: -1

Query :: Which outcome was entered for the molecule COc1ccc(/C=C2\CN(C(=O)CCN3CCC(=NO)CC3)C/C(=C\c3ccc(OC)cc3)C2=O)cc1 in this test?
Result :: 1

Query :: # lookup: test call for CC/C=C\C[C@H](O)C/C=C1/C(=O)C=C[C@@H]1C/C=C\CCCC(=O)NC(C)C
Result :: 1

Query :: Just curious, what result did Nc1nc2c(c3ncccc13)C(c1cccc(Br)c1)Cc1ncccc1-2 (stereo not given) get here?
Result :: -1
